The entries below are paired with their reported cytotoxicity at 70.5 h.
Test: Human HepG2 cell viability assay in 384 well format
Assay type: toxicity, cell-based
Design: dose 125 nL, time 70.5 hour; concentration not given beside the values
Details: HepG2 cells, read-out: Inhibition
Value expressed in %; do not type the unit.

These recorded examples may help you get a feel for the data.
1) c1ccc(N2CCC(c3ccncc3)CC2)cc1    5.91
2) CC(C)C(C)(C#N)NC(=O)Cn1cc(C(N)=O)c(-c2ccccc2)n1 (stereo unspecified)    -6.34
3) COc1ccc(C(C)NCc2cnnn2C)cc1F (stereo unspecified)    2.17
4) c1ccc(CCCC2CN(Cc3ncc[nH]3)CCO2)cc1 (stereo unspecified)    -6.86
5) Cc1c(C(C)NCC2CCCC2)cnn1-c1ccc(F)cc1F (stereo unspecified)    -11.6

Shift focus to the following entry.
Give its cytotoxicity at 70.5 h value. Item: COc1c(C(=O)NC(C)CC(=O)c2cccs2)c(C)nn1C (stereo unspecified)
-0.066

* * *

cytotoxicity at 70.5 h reference
Assay: Human HepG2 cell viability assay in 384 well format
Assay type: toxicity, cell-based
Design: dose 125 nL, time 70.5 hour; concentration not given beside the values
Settings: HepG2 cells, read-out: Inhibition
# output: number + unit

1. O=C(c1c[nH]cn1)N1CCCn2c(CN3CCCCC3)nnc2C1    -1.43%
2. CC(C)NC1CCN(CCc2ccc3c(c2)CCO3)CC1    9.93%
3. O=C(Nc1cccnc1)[C@H]1C[C@H]2OCC[C@H]2N(C(=O)c2ccsc2)C1    -15.4%

Recorded cytotoxicity at 70.5 h for CC1CCN(C)c2ccccc2N1C(=O)c1ccn(C)c(=O)c1 (stereo not given) , please?
-6.59%

Name the reported cytotoxicity at 70.5 h value associated with the compound `CNc1nc(CNC(=O)Nc2cccc(F)c2C)cs1`
-7.06%

Reported cytotoxicity at 70.5 h, compound `CN(C)c1ccc(C(=O)N(CCO)CC2CC2)c(F)c1` : ____
30.4%

* * *

Assay: Human HepG2 cell viability assay in 384 well format
Assay type: toxicity, cell-based
Design: dose 125 nL, time 70.5 hour; concentration not given beside the values
Conditions: HepG2 cells, read-out: Inhibition
Result Type: cytotoxicity at 70.5 h

These solved cases illustrate the format of a correct answer.
1) Cc1noc(COCC(=O)Nc2ccc(Br)c(C)n2)n1    24.3%
2) O=C(NCCc1csc(-c2cccnc2)n1)c1cnn2c1CCCC2    -7.57%
3) Cc1ccoc1C(=O)NCCS(=O)(=O)N1CCSCC1    5.89%
4) Cc1cc(CS(=O)(=O)c2ccccc2)no1    -5.49%
5) Fc1cccc(F)c1Cn1c(C2CCNCC2)cc2cccnc21    3.7%

Need cytotoxicity at 70.5 h, item `O=C(O)c1coc(COc2cccc(F)c2)n1`
-4.11%

Which cytotoxicity at 70.5 h value is on record for `O=c1c(C(F)(F)F)cccn1Cc1nnc(-c2cccnc2)o1` ?
-0.729%

Look up cytotoxicity at 70.5 h: `CN(Cc1c(F)cccc1Cl)C(=O)c1cnn(CCN2CCOCC2)c1`
-12.6%

Return reported cytotoxicity at 70.5 h; argument: `O=C1[C@H]2CN(c3ncccn3)C[C@H]2CN1CC1CC1`
-124%

What value of measured cytotoxicity at 70.5 h is listed for `CN1Cc2c(C(=O)N3CCOCC3)ncn2-c2ccccc2S1(=O)=O` ?
-1.47%

Which value of cytotoxicity at 70.5 h has been reported for `COc1cc(C(C)=O)ccc1SCC(=O)Nc1cc(C)n[nH]1` in the records?
-11.8%

Would you mind telling me what cytotoxicity at 70.5 h value was observed for c1ccc(-n2cc(CN3CCCCC3Cn3cncn3)nn2)cc1 (configuration not stated) ?
-0.323%

Reported cytotoxicity at 70.5 h, compound `O=C(C1CCCC1)N1CCN(Cc2ccncc2)[C@@H]2CS(=O)(=O)C[C@@H]21` : ____
-5.83%
